Target: Cyclin-dependent kinase 2 (Homo sapiens)
Details: Compound concentration 20.0 uM
Description: Thermal Shift Assay. Domain: start/stop: M1-L298
Threshold check on ΔTm: strictly below 0.4 °C is satisfied; on or above 0.4 °C is not satisfied.

Consider the following illustrative entries.
O=C(O)CCNc1cc(N2CCc3ccccc3CC2)nc(-c2ccccn2)n1 : satisfied
Cc1cc(-n2cccc2)c(S(C)(=O)=O)cc1C(=O)N=C(N)N : satisfied
CS(=O)(=O)N1CCN(C(=O)c2cnc3ccc(Cl)cc3c2-c2ccc(C3(C#N)CC3)cc2)CC1 : not satisfied
NS(=O)(=O)OC[C@H]1C[C@@H](Nc2ccnc3cc(-c4cccc(SC(F)(F)F)c4)nn23)[C@H](O)[C@@H]1O : satisfied

In the record for CC(=O)C(=Cc1cc(O)c(O)c([N+](=O)[O-])c1)C(C)=O , is ΔTm less than 0.4 °C?
satisfied

In the record for COc1ccc2nc3[nH]nc(C)c3c(NCCOCCO)c2c1 , is ΔTm less than 0.4 °C?
satisfied

In the record for O=C(CNC(=O)[C@H](COP(=O)(O)O)NC(=O)CCc1c[nH]c2ccccc12)NCCCCc1ccccc1 , is ΔTm less than 0.4 °C?
not satisfied

In the record for O=C1c2ccccc2C(=O)c2oc(-c3ccccc3)nc21 , is ΔTm less than 0.4 °C?
not satisfied

In the record for CNc1ncc2cc(-c3cc(NC(=O)NCCC(C)(C)C)c(F)cc3C)c(C)nc2n1 , is ΔTm less than 0.4 °C?
not satisfied

In the record for CC(C)NC(=O)c1ccc(OC(F)F)c(OCC2CC2)c1 , is ΔTm less than 0.4 °C?
satisfied

---

Molecular target: Aurora kinase A (Homo sapiens)
Settings: Compound concentration 20.0 uM
Description: Thermal Shift Assay. Domain: start/stop: E122-S403
Listed below: ΔTm values for each entry.
Record the result as number plus unit.

Which measured ΔTm value corresponds to Cn1c(=O)cc(N2CCC[C@@H](N)C2)n(Cc2ccccc2C#N)c1=O ?
-1.58 °C

Which measured ΔTm value corresponds to Cc1cc(-n2cccc2)c(S(C)(=O)=O)cc1C(=O)N=C(N)N ?
-2.33 °C

Which measured ΔTm value corresponds to CNC(=O)c1cnc(N2CCC[C@H](N)C2)nc1Nc1cc(C(C)C)nc(C(C)C)c1 ?
-0.12 °C

Which measured ΔTm value corresponds to CC(C)Nc1cc(-c2c[nH]c(C(=O)N[C@H](CO)c3cccc(Cl)c3)c2)c(Cl)cn1 ?
13.7 °C

Which measured ΔTm value corresponds to NC(=O)c1cnc(N[C@@H]2CCCC[C@@H]2N)nc1Nc1cccc(-n2nccn2)c1 ?
2.17 °C

Which measured ΔTm value corresponds to C[C@H](N)C(=O)N1C[C@H](CCCB(O)O)[C@](N)(C(=O)O)C1 ?
-2.46 °C

Which measured ΔTm value corresponds to O=C(CCCCCCNC(=O)c1cnc(N(c2ccccc2)c2ccccc2Cl)nc1)NO ?
-0.63 °C

Which measured ΔTm value corresponds to Cc1cccc(N/N=C(\C(=O)c2cccs2)C(=O)C(F)(F)F)c1 ?
-1.9 °C

Which measured ΔTm value corresponds to OC1CN=C2c3ccn([C@@H]4O[C@H]([C@H](O)c5ccc(Cl)cc5)[C@@H](O)[C@H]4O)c3N=CN21 (some centres undefined) ?
-0.39 °C

---

Biological target: Bromodomain-containing protein 4 (Homo sapiens) (UniProt O60885)
Conditions: Compound concentration 20.0 uM
recordedEndpoint: ΔTm (°C)
Note: unit °C is implicit; provide only the numeric part.

COc1cc2c(cc1-c1c(C)noc1C)[nH]c1nc(C)nc(-c3ccnc4ccccc34)c12 : 11.5
COc1cccc(Nc2c(C(N)=O)cnc3c(C)cc(S(=O)(=O)c4cccc(C(=O)N(C)C)c4)cc23)c1 : -2.14
Cc1cccc(N/N=C(\C(=O)c2cccs2)C(=O)C(F)(F)F)c1 : -1.9
O=C(c1cc(Cc2n[nH]c(=O)c3ccccc23)ccc1F)N1CCN(C(=O)C2CC2)CC1 : 15.7
COc1cccc(OC)c1S(=O)(=O)Nc1noc2cc(Cn3cccn3)cc(OC)c12 : -2.01

Which measured ΔTm value corresponds to CSc1cccc(Nc2ncc3cc(-c4c(Cl)cccc4Cl)c(=O)n(C)c3n2)c1 ?
-0.42

Which measured ΔTm value corresponds to Cc1cc(C(=O)CN2CCCCC2)c(C)n1-c1ccc(Cl)cc1 ?
-2.43

Which measured ΔTm value corresponds to O=C(CCCCCCNC(=O)c1cnc(N(c2ccccc2)c2ccccc2)nc1)NO ?
-2.07

Which measured ΔTm value corresponds to Nc1ccccc1NC(=O)CCCCCC(=O)Nc1ccccc1 ?
-2.09

Which measured ΔTm value corresponds to CC(C)c1c(-c2ccccc2)[nH]c2c(C#N)cnn2c1=O ?
-2.81

---

Molecular target: Mitogen-activated protein kinase 1 (Homo sapiens) (UniProt P28482)
Sequence (P28482 whole entry): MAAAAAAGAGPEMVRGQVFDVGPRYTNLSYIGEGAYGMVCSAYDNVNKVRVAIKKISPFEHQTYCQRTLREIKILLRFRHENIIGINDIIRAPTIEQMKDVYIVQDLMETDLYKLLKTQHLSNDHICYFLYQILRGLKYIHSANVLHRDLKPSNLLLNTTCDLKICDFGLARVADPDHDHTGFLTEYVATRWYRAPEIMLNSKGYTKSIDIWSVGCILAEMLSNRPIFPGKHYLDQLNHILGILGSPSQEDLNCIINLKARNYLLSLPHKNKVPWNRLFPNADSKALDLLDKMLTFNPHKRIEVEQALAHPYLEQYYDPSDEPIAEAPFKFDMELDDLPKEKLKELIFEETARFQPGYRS
Conditions: Compound concentration 20.0 uM
Description: Thermal Shift Assay. Domain: start/stop: M1-S360
Residues, ends and D or L forms follow the SMILES beside them. *: point of attachment. Cbz = O=C(OCc1ccccc1)*; CH2F = FC*
Threshold check on ΔTm: strictly below 0.2 °C is 1; on or above 0.2 °C is 0.

Consider the following illustrative entries.
CS(=O)(=O)n1cc2c(n1)CN([C@H]1CO[C@H](c3cc(F)ccc3F)[C@@H](N)C1)C2 : 0
CNCC[C@@H](Oc1ccccc1C)c1ccccc1 : 1
Fc1ccc(CNc2ncnc3ccc(F)cc23)cc1 : 1
Cn1ncc2c(-c3c(-c4ccc(F)cn4)nn4c3COC(C)(C)C4)ccnc21 : 0
O=C(O)C1=CCCN(CCON=C(c2ccccc2)c2ccccc2)C1 : 1

In the record for Cn1c(=O)cc(N2CCC[C@@H](N)C2)n(Cc2cc(F)ccc2C#N)c1=O , is ΔTm less than 0.2 °C?
0

In the record for CC(=O)N[C@@H](Cc1ccc(O)cc1)C(=O)N[C@H](C(=O)N[C@@H](C)C(=O)N[C@@H](CC(=O)O)C(=O)COC(=O)c1c(C)cccc1C)C(C)C , is ΔTm less than 0.2 °C?
1

In the record for COC(=O)CC(NC(=O)C(C)NC(=O)C(NC(=O)C(CC(=O)OC)NC(=O)C(NC(=O)OCc1ccccc1)C(C)C)C(C)C)C(=O)CF (centres undefined) (Cbz-VD(OMe)VAD(OMe)-CH2F; configuration not given here) , is ΔTm less than 0.2 °C?
0

In the record for O=C(O)Cc1ccc(Cc2cc(-c3cccc(Cl)c3)nc(C(F)(F)F)c2)cc1 , is ΔTm less than 0.2 °C?
0

---

Molecular target: Cyclin-dependent kinase 2 (Homo sapiens) (UniProt P24941)
Conditions: Compound concentration 20.0 uM
recordedEndpoint: ΔTm (°C)
Note: unit °C is implicit; provide only the numeric part.

Before answering, review these 4 worked examples.
O=C(NCc1ncccc1F)c1coc(CCNCCc2nc3ccccc3[nH]2)n1 : -0.13
Cc1nc(-c2cnn(C)c2-c2ccc(C(F)(F)F)cn2)c2c(N3CCC3)ncnn12 : 0.08
Cc1ncccc1-c1cnc(NCc2c(F)ccc3c2CCO3)n2cnnc12 : 0.42
O=C(C=Cc1ccc(O)cc1)c1ccc(O)cc1O : 1.64

Which measured ΔTm value corresponds to O=C1COc2c(cccc2[C@@H](O)CNCCN(C(=O)CCNCCc2ccc(Cl)c(Cl)c2)C2CCCCC2)N1 ?
0.73

---

Molecular target: Cyclin-dependent kinase 2 (Homo sapiens) (UniProt P24941)
Settings: Compound concentration 20.0 uM
Threshold check on ΔTm: strictly below 0.5 °C is class 1; on or above 0.5 °C is class 0.

O=C1c2ccccc2C(=O)c2oc(-c3cccnc3)nc21 : class 1
CC(C)(C)NS(=O)(=O)c1cccc2c(NC(=O)[C@H](Cc3ccccc3)NC(=O)C3CCCCC3)cccc12 : class 1
CCS(=O)(=O)Cc1cnc(Oc2ccc(F)cc2F)c(-c2cc(C)c3c(=O)[nH]ccn23)c1 : class 0
CCc1nc2c(C)cc(N3CCN(CC(=O)N4CC(O)C4)CC3)cn2c1N(C)c1nc(-c2ccc(F)cc2)c(C#N)s1 : class 1
Cc1c(CN2CCC(Nc3ncnc4sc(CC(F)(F)F)cc34)CC2)ccc2c1cc(C#N)n2Cc1cn[nH]c1 : class 1
Cc1nc(-c2cnc(NC(C)C)n(C)c2=O)ccc1Oc1ccnc(-c2cnn(C)c2)c1 : class 0

Here's the next entry for you.
In the record for C=CCc1cccc(CNc2nc3ccccc3n2CCC)c1O , is ΔTm less than 0.5 °C?
class 1

---

Listed below: ΔTm values for each entry.
Biological target: Bromodomain-containing protein 4 (Homo sapiens)
Conditions: Compound concentration 20.0 uM
Note: unit °C is implicit; provide only the numeric part.

Before answering, review these 4 worked examples.
O=C1CCc2cc(OCCCCc3nnnn3C3CCCCC3)ccc2N1 : -0.81
CS(=O)(=O)N1CCN(C(=O)c2cnc3ccc(Cl)cc3c2-c2ccc(C3(C#N)CC3)cc2)CC1 : -2.94
C[C@H](N)C(=O)N1C[C@H](CCCB(O)O)[C@](N)(C(=O)O)C1 : -2.12
NC(=O)c1cccc(NC(=O)CCC(=O)NCCc2cn(CCNS(=O)(=O)c3cccc(C(=O)O)c3)nn2)c1 : -2.59

// below: ΔTm requested for another compound
# get_value(readout= ΔTm, system= Bromodomain-containing protein 4 (Homo sapiens)) for O=C(N1CCCCC1c1ccccc1)n1cc(-c2ccc(-c3cccc(CO)c3)cc2)nn1 (centres undefined)
-2.31
